Test system: CCRF-CEM leukemia
RUN DESCRIPTION: NCI-60 one-dose screen, 48 h (100 = growth as untreated, 0 = no growth, -100 = all killed)
MEASUREMENT CONTEXT: 10 µM unless noted
Compounds without any hit were thinned out: in the full panel of roughly 83,000, 20% have a hit. Active and inactive are the calls of the source. Rule for the calls: active = growth percent below 10; inactive = the rest.
Would you kindly list growth for each of these compounds?

Lookup: Tell me reported growth for `COC(=O)c1nc(-c2ccccc2)oc1S(=O)(=O)N(C)CCO` , tested with CCRF-CEM leukemia.
Found: 16.2% (inactive)

Lookup: Tell me reported growth for `C/C(=C(\c1ccc(OCCN2CCOCC2)cc1)c1ccc(OC(=O)C2CCCCC2)cc1)c1ccc(Cl)cc1` , tested with CCRF-CEM leukemia.
Found: -24.6% (active)

Lookup: Tell me reported growth for `COc1ccc2c(c1)oc1c(C)c3c(c(C)c12)C(=O)N(Nc1ccccc1)C3=O` , tested with CCRF-CEM leukemia.
Found: 111% (inactive)

Lookup: Tell me reported growth for C=C(C)[C@@H]1CC[C@]2(C(=O)O)CC[C@]3(C)[C@H](CC[C@@H]4[C@@]5(C)CCC(N)C(C)(C)[C@@H]5CC[C@]43C)[C@@H]12 (some centres undefined) , tested with CCRF-CEM leukemia.
Found: -8.42% (active)

Lookup: Tell me reported growth for `COc1cc2c(cc1OCCCOC1=C=C=C(c3ccc4c(c3)c3cc(-c5ccc(OCCCOc6cc7c(cc6OC)C(=O)N6CCC[C@H]6C=N7)cc5)ccc3n4S(=O)(=O)c3ccc(C)cc3)C=C1)N=C[C@@H]1CCCN1C2=O` , tested with CCRF-CEM leukemia.
Found: 40.3% (inactive)

Lookup: Tell me reported growth for O=C1OCC2=C1C(c1cccc(C(F)(F)F)c1)c1cc3c(cc1N2CCO)CCC3 (centres undefined) , tested with CCRF-CEM leukemia.
Found: 6.63% (active)

Lookup: Tell me reported growth for CC12OC(CC(O)C1O)n1c3ccccc3c3c4c(c5c6ccccc6n2c5c31)C(=O)N(CCN1CCOCC1)C4=O (centres undefined) , tested with CCRF-CEM leukemia.
Found: 16.4% (inactive)

Lookup: Tell me reported growth for `COc1ccc(C(=O)/C=C/c2ccc(OCc3ccc(Cl)cc3)cc2)cc1OC` , tested with CCRF-CEM leukemia.
Found: 73.4% [100 µM] (inactive)

Lookup: Tell me reported growth for O=C(/C=C/C12c3ccccc3C(c3ccccc31)C1C(=O)NC(=O)C12)c1ccncc1 (centres undefined) , tested with CCRF-CEM leukemia.
Found: -12.7% (active)

Lookup: Tell me reported growth for `COC(=O)N/N=C/c1c[n+]([O-])c2ccccc2[n+]1[O-]` , tested with CCRF-CEM leukemia.
Found: 94% (inactive)

Lookup: Tell me reported growth for `CCCCC#Cc1c(/C=C(\CCCC)SCC)n(C)c(=O)[nH]c1=O` , tested with CCRF-CEM leukemia.
Found: 95% (inactive)

Lookup: Tell me reported growth for `Cc1nc2sc(C(=O)Nc3cccc4ccccc34)c(N)c2cc1C(=O)/C=C/c1ccccc1` , tested with CCRF-CEM leukemia.
Found: 5.51% (active)

Lookup: Tell me reported growth for `CCOC(=O)CCCn1c(-c2ccccc2)cc(-c2ccccc2)c(C#N)c1=O` , tested with CCRF-CEM leukemia.
Found: 88.4% (inactive)

Lookup: Tell me reported growth for `CCN1CCN(C(=O)[C@]23CC[C@@H](C)[C@H](C)[C@@H]2C2=CC[C@@H]4[C@@]5(C)CCC(=O)C(C)(C)[C@@H]5CC[C@@]4(C)[C@]2(C)CC3)CC1` , tested with CCRF-CEM leukemia.
Found: -8.01% (active)
